B1: INTS4 (parent)
chain: IRLVDDAFGKICHMVSDGSWVVRV

Variants of: B1
Test: protein stability index of a GFP-peptide fusion (GPS, HEK-293T) (PSI 1-6); higher = more stable;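 further: lentivirally expressed fusions sorted by FACS into six bins by GFP to DsRed ratio, PSI derived from sequencing read proportions per bin multiplied by bin number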
Details: c terminus: a fixed tail appended
Please go through the items and note down their protein stability index.
Answer using only a numeral; do not append any unit.

What does the record list as protein stability index for IRLVDDAFGKICHFVSDGSWVVRV [M14F] ?
3.85

Same lookup for IRLVDDAFGKNCHMVSDGSWVVRV [I11N] , please.
2.3

Same lookup for IRLVDDAFGKICPMVSDGSWVVRV [H13P] , please.
2.63

Same lookup for IRLVDDAFGKICHMVSFGSWVVRV [D17F] , please.
1.24

Same lookup for IRLVDDAFGKICHMVSDGSQVVRV [W20Q] , please.
3.26

Same lookup for IRLVDDARGKICHMVSDGSWVVRV [F8R] , please.
2.46

Same lookup for IRLVDDAFGKICHMVSDGSWFVRV [V21F] , please.
2.62

Same lookup for IRLVDDAFGKIPHMVSDGSWVVRV [C12P] , please.
3.97

Same lookup for IRLVDDAFGKSCHMVSDGSWVVRV [I11S] , please.
2.87

Same lookup for IRLVDDAFGKICHMVSHGSWVVRV [D17H] , please.
3.91

Same lookup for IRLVDDAFGKIAHMVSDGSWVVRV [C12A] , please.
3.65

Same lookup for IRLVDDAFGKICHMVSDGIWVVRV [S19I] , please.
3.87

Same lookup for IRLVDDAFGKICHMVSDGSWVVRF [V24F] , please.
3.03

Same lookup for IRLVDDAFGKICHMVSDTSWVVRV [G18T] , please.
1.95

Same lookup for IRLVDDAFGKICHMVSDGSWVVHV [R23H] , please.
2.94

Same lookup for IRLVDDAFGKICHMSSDGSWVVRV [V15S] , please.
1.84

Same lookup for IRLVDDAFGKVCHMVSDGSWVVRV [I11V] , please.
3.14

Same lookup for IMLVDDAFGKICHMVSDGSWVVRV [R2M] , please.
2.78

Same lookup for IRLVDDAFGKICHMVSDGDWVVRV [S19D] , please.
3.41

Same lookup for IRCVDDAFGKICHMVSDGSWVVRV [L3C] , please.
1.72

Same lookup for IRLVDDAFGKICHMVSDGSWVDRV [V22D] , please.
3.6

Same lookup for IRLVDDAFGKICHMVSDGSWVVMV [R23M] , please.
3.4
